- Target Or System: human insulin receptor (HIR) (human, UniProt P06213)
- Measurement Description: competition
Non-standard residues stand in square brackets, D forms with d. No end group written: not given here. Tyr(3-I) = N[C@@H](Cc1ccc(O)c(I)c1)C(=O)O
// classify: if (Kd < 0.1 nM) True else False

{"Binder": "Ac-SLEEEWAQIECEVYGRGCPSESFYDWFERQL (ends and bridges not checked) [S597]", "Class": "True"}

### Prompt Criterion: Kd strictly below 0.1 nM. Is it met by SSNFYQALMLLS [S129] ?
### Response False

### Prompt Strictly below 0.1 nM: is that where Kd of S588 (ends and bridges not checked) chain 1: LEEEWAQVECEV chain 2: [Tyr(3-I)]GRGCSGSLDESFYDWFERQLG sits?
### Response False

### Prompt is_below(Kd, 0.1 nM) for DPFYQGLWEWLRESGEE [S289] ?
### Response False

### Prompt Decide: Kd of SLEEEWAQIEEVWGRGSESFYDWFERQLG [S571] strictly below 0.1 nM?
### Response False

### Prompt Here's an entry: S591 (protein) chain 1: LEEEWAQIECEVWGRGCSGSLDESF chain 2: LEEEWAQIECEVWGRGCSGSLDESF . Is its Kd below 0.1 nM?
### Response False
